- target: hIDO-1 (Homo sapiens)
- assay_info: hIDO-1 enzymatic assay
- Type: biochemical
- details: 20 µM compound; mean ± SE of two independent experiments; read-out: Inhibitory Rate at 20 µM (enzymatic)
Overview of reported inhibition at 20 µM across a group of molecules:
Provide only the numeric value, understood in %.

INSERT INTO assay_data (molecule, target, result_unit, obs_value) VALUES
  ('CC1(C)C=CC(=O)c2c1ccc1c2C(=O)C(=O)c2c(CO)coc2-1', 'hIDO-1 (Homo sapiens)', '%', 68);

Inquiry: Record request: inhibition at 20 µM value, item Cc1coc2c1C(=O)C(=O)c1c-2ccc2c1C(=O)C=CC2(C)C
Reply text: 52.7

Inquiry: Record request: inhibition at 20 µM value, item Cc1coc2c1C(=O)C(=O)c1c-2ccc2c1C(OC(=O)c1ccccc1)CCC2(C)C (stereo not drawn)
Reply text: 54.5

Inquiry: Record request: inhibition at 20 µM value, item Cc1coc2c1C(=O)C(=O)c1c-2ccc2c1C(OC(=O)C1CCCCC1)CCC2(C)C (stereo not drawn)
Reply text: 48

Inquiry: Record request: inhibition at 20 µM value, item Cc1coc2c1C(=O)C(=O)c1c-2ccc2c1C(OC(=O)c1cccs1)CCC2(C)C (stereo not drawn)
Reply text: 60.4

Inquiry: Record request: inhibition at 20 µM value, item CCC(=O)OC1CCC(C)(C)c2ccc3c(c21)C(=O)C(=O)c1c-3oc(-c2ccsc2)c1C (stereo not drawn)
Reply text: 29.3

* * *

- target: hIDO-1 (Homo sapiens, UniProt P14902)
- Sequence (P14902 whole entry): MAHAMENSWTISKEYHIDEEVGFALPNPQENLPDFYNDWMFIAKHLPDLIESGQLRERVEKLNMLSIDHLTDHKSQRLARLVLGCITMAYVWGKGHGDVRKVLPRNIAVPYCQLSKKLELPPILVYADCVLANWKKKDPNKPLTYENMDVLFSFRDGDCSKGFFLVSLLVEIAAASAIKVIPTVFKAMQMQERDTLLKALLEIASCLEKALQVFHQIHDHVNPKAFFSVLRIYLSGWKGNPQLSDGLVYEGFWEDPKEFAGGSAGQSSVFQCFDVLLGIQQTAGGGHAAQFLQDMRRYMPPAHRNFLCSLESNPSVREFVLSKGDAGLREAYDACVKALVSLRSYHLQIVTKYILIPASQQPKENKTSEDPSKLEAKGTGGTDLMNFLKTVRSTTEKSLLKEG
- assay_info: hIDO-1 enzymatic assay
- Format: biochemical
- details: rhIDO-1, L-tryptophan substrate, 37 °C 30 min; mean ± SE of two independent experiments
metric_name: IC50

Take a look at these entries with their results.
INSERT INTO assay_data (compound, metric_name, obs_value) VALUES
  ('CC1(C)C=CC(=O)c2c1ccc1c2C(=O)C(=O)c2c(CO)coc2-1 [Compound 15]', 'IC50', '~20 µM'),
  ('Cc1coc2c1C(=O)C(=O)c1c-2ccc2c1CCCC2(C)C [Compound 6, Tan-IIA, reference compound]', 'IC50', '> 20 µM');

// below: IC50 requested for another compound
Inquiry: Record request: IC50 value, item Cc1coc2c1C(=O)C(=O)c1c-2ccc2c1C(=O)C=CC2(C)C [Compound 14]
Reply text: ~20 µM

* * *

Overview of reported inhibition at 20 µM across a group of compounds:
- target: hIDO-1 (Homo sapiens, UniProt P14902)
- assay_info: hIDO-1 enzymatic assay
- Type: biochemical
- details: 20 µM compound; mean ± SE of two independent experiments; read-out: Inhibitory Rate at 20 µM (enzymatic)
Provide only the numeric value, understood in %.

INSERT INTO results (compound, target, result_unit, obs_value) VALUES
  ('Cc1coc2c1C(=O)C(=O)c1c-2ccc2c1CCCC2(C)C [Compound 6, Tan-IIA, reference compound]', 'hIDO-1 (Homo sapiens, UniProt P14902)', '%', 23.1);

Inquiry: Record request: inhibition at 20 µM value, item Cc1coc2c1C(=O)C(=O)c1c-2ccc2c1C=CCC2(C)C
Reply text: 61.2

Inquiry: Record request: inhibition at 20 µM value, item CCC(=O)OC1CCC(C)(C)c2ccc3c(c21)C(=O)C(=O)c1c-3oc(-c2ccccc2)c1C (stereo not drawn)
Reply text: 21.5
